Tested on: IL-4
Test: IL-4 levels in sera upon i.v. glycolipid administration to C57BL/6 mice (ELISA)
Type: in vivo
Parameters: unit not given here
Conditions: hour 24
Listed molecules paired with reported IL-4 level, test 1

INSERT INTO assay_data (molecule, meas_value) VALUES
  ('CCCCCCCCCCCCCCCCC/C=C/CCCCCCCCC(=O)N[C@@H](CC[C@H]1O[C@H](CO)[C@H](O)[C@H](O)[C@H]1O)[C@H](O)[C@H](O)CCCCCCCCCCCCCC [A-3]', 49),
  ('CCCCCCCCCCCCCCCCCCCCCCCCCC(=O)N[C@@H](CO[C@H]1O[C@H](CO)[C@H](O)[C@H](O)[C@H]1O)[C@H](O)[C@H](O)CCCCCCCCCCCCCC [KRN, reference compound]', 20);

Prompt line: Item CCCCCCCCCCCCCCCCCCCCCCCCCCCCC(=O)N[C@@H](/C=C/[C@H]1O[C@H](CO)[C@H](O)[C@H](O)[C@H]1O)[C@H](O)[C@H](O)CCCCCCCCCCCCCC [A-2] has what recorded IL-4 level, test 1?
Response line: 46

Prompt line: Item CCCCCCCCCCCCCC[C@@H](O)[C@@H](O)[C@H](CC[C@H]1O[C@H](CO)[C@H](O)[C@H](O)[C@H]1O)NC(=O)CCCCCCCCCCCCCCCCCCCOCCCCC [A-5] has what recorded IL-4 level, test 1?
Response line: 46

Prompt line: Item CCCCCCCCCCCCCC[C@@H](O)[C@@H](O)[C@H](CC[C@H]1O[C@H](CO)[C@H](O)[C@H](O)[C@H]1O)NC(=O)CCCCCCCCCCCCCCCCCCCOCCCCCC [A-4] has what recorded IL-4 level, test 1?
Response line: 29

Prompt line: Item CCCCCCCCCCCCCCCCCC/C=C/CCCCCCCCC(=O)N[C@@H](/C=C/[C@H]1O[C@H](CO)[C@H](O)[C@H](O)[C@H]1O)[C@H](O)[C@H](O)CCCCCCCCCCCCCC [A-1] has what recorded IL-4 level, test 1?
Response line: 57

Prompt line: Item CCCCCCCCCCCCCCCCCCCCCCCCCC(=O)N[C@@H](CC[C@H]1O[C@H](CO)[C@H](O)[C@H](O)[C@H]1O)[C@H](O)[C@H](O)CCCCCCCCCCCCCC [CRONY, reference compound] has what recorded IL-4 level, test 1?
Response line: 16

====

Listed molecules paired with reported IFN-γ levels, average
Test system: IFN-γ
Assay: IFN-γ levels in sera upon i.v. glycolipid administration to BALB/c mice (ELISA)
Type: in vivo
Design: unit not given here
Conditions: BALB/c, serum, hour 12
Output spec: single numeric token, no unit.

Please review the entries below; each comes with its answer.
INSERT INTO assay_data (molecule, meas_value) VALUES
  ('CCCCCCCCCCCCCC[C@@H](O)[C@@H](O)[C@H](CC[C@H]1O[C@H](CO)[C@H](O)[C@H](O)[C@H]1O)NC(=O)CCCCCCCCCCCCCCCCCCCOCCCCC', 3566),
  ('CCCCCCCCCCCCCCCCCCCCCCCCCC(=O)N[C@@H](CC[C@H]1O[C@H](CO)[C@H](O)[C@H](O)[C@H]1O)[C@H](O)[C@H](O)CCCCCCCCCCCCCC [CRONY, reference compound]', 5611);

# ---- query molecule ----
Prompt line: Item `CCCCCCCCCCCCCC[C@@H](O)[C@@H](O)[C@H](CC[C@H]1O[C@H](CO)[C@H](O)[C@H](O)[C@H]1O)NC(=O)CCCCCCCCCCCCCCCCCCCOCCCCCC` has what recorded IFN-γ levels, average?
Response line: 6513.5
